For each record, write down the corresponding pIC50.
molecular target: cGAS (Homo sapiens, UniProt Q8N884); experiment: In vitro inhibition assay of cGAS activity (cGAMP production, RapidFire mass spectrometry); type: biochemical; design: Insert cDNA encoding full-length of human cGAS; His6; made in house; host or cells: E. coli BL21(DE3); conditions: 10 nM recombinant human cGAS, 60 nM 75-bp dsDNA, 50 μM ATP, 50 μM GTP, 3 hrs
Sequence (Q8N884 whole entry): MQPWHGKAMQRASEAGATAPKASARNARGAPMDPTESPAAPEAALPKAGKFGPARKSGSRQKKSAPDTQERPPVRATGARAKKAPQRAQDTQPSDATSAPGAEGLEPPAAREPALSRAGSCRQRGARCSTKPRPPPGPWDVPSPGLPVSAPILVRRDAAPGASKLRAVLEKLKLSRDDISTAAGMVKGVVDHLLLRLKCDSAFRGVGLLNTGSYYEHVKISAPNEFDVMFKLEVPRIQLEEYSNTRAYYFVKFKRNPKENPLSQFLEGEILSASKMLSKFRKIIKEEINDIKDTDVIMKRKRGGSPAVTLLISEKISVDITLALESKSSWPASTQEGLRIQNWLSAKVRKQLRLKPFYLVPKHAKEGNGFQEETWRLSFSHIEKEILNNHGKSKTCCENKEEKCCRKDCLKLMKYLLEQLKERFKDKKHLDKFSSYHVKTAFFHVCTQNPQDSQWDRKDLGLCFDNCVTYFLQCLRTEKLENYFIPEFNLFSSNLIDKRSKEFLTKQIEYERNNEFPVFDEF
Answers are plain numbers, as −log10 of the molar value.

See these solved cases before continuing.
CC1C(=O)NCCc2[nH]c3c(Cl)c(Cl)c(F)c(NCCO)c3c21 (racemic); 7.54
C[C@@H]1C(=O)NCCc2[nH]c3c(Cl)c(Cl)cc(NC(=O)CO)c3c21 (single isomer, unassigned) [Example 12B]; 6.13
CC(F)(F)C[C@@H]1CNC(=O)Cc2c1[nH]c1c(Cl)c(Cl)cc(CC#N)c21 (single isomer, unassigned) [Example 139]; 6.08

Please give pIC50, item by item, for the list that follows.
1. C[C@H](O)C(=O)Nc1cc(Cl)c(Cl)c2[nH]c3c(c12)[C@@H](C)C(=O)NCC3(C)C (single isomer, unassigned) [Example 182]
2. C[C@@H]1CNC(=O)Cc2c1[nH]c1c(Cl)c(Cl)cc(OCC#N)c21 (single isomer, unassigned) [Example 149]

Reply:
1: 7.34; 2: 5.81

Please give pIC50, item by item, for the list that follows.
1. CC1C(=O)NCC(C)(C)c2[nH]c3c(Cl)c(Cl)cc(NCCO)c3c21 (stereo not shown)
2. C[C@@H]1CNC(=O)Cc2c1[nH]c1c(Cl)c(Cl)cc(-c3cnn(C)n3)c21 (single isomer, unassigned) [Example 146]

Reply:
1. 7.27
2. 7.57
